Reported Kd by item:
- measured on: T1, human CEACAM6, extracellular (mature form), R&D Systems 3934-CM (human, UniProt P40199 35-320)
- T1 construct: used biotinylated in some assays; also called TPP-1436; Recombinant human CEACAM6
- T1 sequence: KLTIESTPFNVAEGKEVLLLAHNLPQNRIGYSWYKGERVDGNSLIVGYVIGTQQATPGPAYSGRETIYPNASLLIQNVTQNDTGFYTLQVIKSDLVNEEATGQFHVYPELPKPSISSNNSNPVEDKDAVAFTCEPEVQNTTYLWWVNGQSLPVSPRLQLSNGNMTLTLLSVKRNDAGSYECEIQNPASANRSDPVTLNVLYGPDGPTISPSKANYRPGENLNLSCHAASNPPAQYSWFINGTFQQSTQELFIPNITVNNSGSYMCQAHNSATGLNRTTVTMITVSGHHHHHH
- test protocol: SPR, antibody captured, antigen as analyte
value type: Kd (nM)

1. TPP-3705 (antibody, human IgG2, kappa, V domains shown, also called 090E-M007-A09-Mat1-hIgG2-hIgG2Kappa) VH: EVQLVESGGGLVQPGGSLRLSCAASGFTFSLYQMHWVRQAPGKGLEWVSWISFSGGNTGYADSVKGRFTISRDNSKNTLYLQMNSLRAEDTAVYYCARATGYSSPWYLDPWGQGTLVTVSS VL: DIQMTQSPSSLSASVGDRVTITCQASHEIDNYLNWYQQKPGKAPKLLIYDAYWLKTGVPSRFSGSGSGTDFTLTISSLQPEDIATYYCQGYDDLSVTFGGGTKVDIKR = 28
2. TPP-3821 (antibody, human IgG2, kappa, V domains shown, humanized from TPP-3187, human IgG2; also called 3187HU2-hIgG2Kappa) VH: QVTLRESGPALVKPTQTLTLTCTFSGFSLSTYGIGVGWIRQPPGKALEWLAHIWWNDNKYYSTSLKTRLTISKDTSKNQVVLTMTNMDPVDTATYYCARISLPYFDYWGQGTLVTVSS VL: DIQLTQSPSFLSASVGDRVTITCKASQNVGTAVAWYQQKPGKAPKLLIYSASNRYTGVPSRFSGSGSGTEFTLTISSLQPEDFATYYCQQYNNYPLTFGGGTKVEIKR = 24
3. TPP-3187 (antibody, mouse IgG1, V domains shown, murine hybridoma antibody, mouse IgG1; also called 792.15C4F4) VH: QVTLKESGPGILQPSQTLSLTCSFSGFSLTTYGIGVGWIRQPSGKGLEWLAHIWWNDNKYYNTALKSRLTISKDTSNNQVFLKIASVDTADTATYYCARISLPYFDYWGQGTTLTVSS VL: DIVMTQSQKFMSTSVGDRVSITCKASQNVGTAVAWYQQKPGQSPKLLIYSASNRYTGVPDRFTGSGSGTDFTLTISNMQSEDLADYFCQQYNNYPLTFGAGTKLELK = 68
